# Target Under Test: Human GPR40 (Homo sapiens (Human))
# Assay Explanation: Inositol Phosphate Turnover (IP1) Assay 1, HEK cells stably expressing human GPR40, 3H-inositol SPA
# Type: cell-based
# Measurement Parameters: HEK cells stably expressing human GPR40, 96-well
Measured Metric: EC50 (nM)

>>> reported_measurement("C[C@H](C(=O)O)[C@H](c1cccc(OC[C@H]2C[C@@H]2c2cc(F)ccc2F)c1)C1CC1 [Example 151]")
90
>>> reported_measurement("COc1cccc(OC2CC(COc3cccc([C@H](C4CC4)[C@H](C)C(=O)O)c3)C2)c1 (single isomer, unassigned) [Example 65]")
22
>>> reported_measurement("COc1ncc(OC2CC(COc3cccc([C@H](C4CC4)[C@H](C)C(=O)O)c3)C2)cn1 (stereo partly drawn) [Example 96]")
8230
>>> reported_measurement("C[C@H](C(=O)O)[C@H](c1cccc(OC2CN(Cc3cc(C(F)(F)F)ccc3C(F)(F)F)C2)c1)C1CC1 [Example 32]")
764
>>> reported_measurement("C[C@H](C(=O)O)[C@H](c1cccc(OC[C@H]2C[C@@H]2c2cccc(OC3CC3)c2)c1)C1CC1 [Example 138]")
74
>>> reported_measurement("C[C@H](C(=O)O)[C@H](c1cccc(OCC2CC(c3ccccc3)C2)c1)C1CC1 (stereo partly drawn) [Example 72]")
201
>>> reported_measurement("C[C@H](C(=O)O)[C@H](c1cccc(OC[C@H]2C[C@@H]2c2cccnc2)c1)C1CC1 [Example 147]")
4440
>>> reported_measurement("COc1ccnc(OC2CC(COc3cccc([C@H](C4CC4)[C@H](C)C(=O)O)c3)C2)c1 (single isomer, unassigned) [Example 105]")
56

I. COc1cccc(C2CC2COc2cccc([C@H](C3CC3)[C@H](C)C(=O)O)c2)c1 (stereo partly drawn) [Example 82]
II. COc1cccc(OC2CC(COc3cccc([C@H](C4CC4)[C@H](C)C(=O)O)c3)C2)c1 (single isomer, unassigned) [Example 66]
Incoming: From the recorded data, which exceeds the other in EC50: I or II ? Select an item and report its label.
Outgoing: I

I. C[C@H](C(=O)O)[C@H](c1cccc(OCC2CCN(c3cccc(C(F)(F)F)n3)CC2)c1)C1CC1 [Example 37]
II. COc1cccc(C2CC2COc2cccc([C@@H](CC(=O)O)C3CC3)c2)c1 (stereo partly drawn) [Example 61]
Incoming: From the recorded data, which exceeds the other in EC50: I or II ? Select an item and report its label.
Outgoing: II
(II: 651 nM, I: 177 nM)

----------
# Target Under Test: Human GPR40 (Homo sapiens (Human), UniProt O14842)
# Sequence (O14842 whole entry): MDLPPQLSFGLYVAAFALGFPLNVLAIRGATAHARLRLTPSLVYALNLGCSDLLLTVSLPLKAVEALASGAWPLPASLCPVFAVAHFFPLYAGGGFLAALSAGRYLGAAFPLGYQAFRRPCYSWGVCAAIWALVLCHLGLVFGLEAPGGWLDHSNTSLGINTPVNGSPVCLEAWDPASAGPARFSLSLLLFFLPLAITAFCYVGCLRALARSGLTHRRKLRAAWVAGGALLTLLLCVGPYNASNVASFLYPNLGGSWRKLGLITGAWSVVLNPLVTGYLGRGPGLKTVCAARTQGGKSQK
# Assay Explanation: Inositol Phosphate Turnover (IP1) Assay 1, HEK cells stably expressing human GPR40, 3H-inositol SPA
# Assay type: cell-based
# Measurement Parameters: HEK cells stably expressing human GPR40, 96-well
Measured Metric: EC50 (nM)

>>> reported_measurement("COc1ccc(F)cc1CN1CCC(COc2cccc([C@@H](CC(=O)O)C3CC3)c2)C1 (stereo partly shown)")
10000

A. Cc1cc(OC2CC(COc3cccc([C@H](C4CC4)[C@H](C)C(=O)O)c3)C2)n(C)n1 (stereo partly shown)
B. COc1cccc(C[C@@H]2C[C@H]2COc2cccc([C@H](C3CC3)[C@H](C)C(=O)O)c2)c1
Incoming: Would you mind telling me which has the lower recorded EC50 between A and B ? Select an item and report its label.
Outgoing: B
(B: 187 nM, A: 7240 nM)
